The entries below are paired with their reported Ki.
molecular target: D2 receptor (rat brain striatal membrane preparation) (Rattus norvegicus (Rat)); assay: D2 receptor binding; conditions: [3H]spiperone, rat striatal membranes
Sequence (P61169 whole entry): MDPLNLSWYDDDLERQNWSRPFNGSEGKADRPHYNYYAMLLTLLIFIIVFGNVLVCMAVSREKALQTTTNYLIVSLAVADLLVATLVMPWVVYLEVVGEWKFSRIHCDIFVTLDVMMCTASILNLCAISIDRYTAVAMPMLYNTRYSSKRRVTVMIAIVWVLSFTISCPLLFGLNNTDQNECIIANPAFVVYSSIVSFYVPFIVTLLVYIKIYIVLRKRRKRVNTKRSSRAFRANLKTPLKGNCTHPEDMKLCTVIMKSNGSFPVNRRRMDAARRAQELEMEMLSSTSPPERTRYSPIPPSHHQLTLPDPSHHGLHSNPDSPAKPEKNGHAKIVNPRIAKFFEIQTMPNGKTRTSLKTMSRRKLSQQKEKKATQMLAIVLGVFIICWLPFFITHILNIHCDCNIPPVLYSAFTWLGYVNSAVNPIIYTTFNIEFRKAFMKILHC

Consider the following illustrative entries.
INSERT INTO assay_data (entry_smiles, result) VALUES
  ('CNc1nc(Cl)c(Cl)c(N2CCN(CC[C@H]3CC[C@H](NC(C)=O)CC3)CC2)n1', '15 to 50 nM'),
  ('CNc1nc(Cl)c(Cl)c(N2CCN(CC[C@H]3CC[C@H](NC(=O)N(C)C)CC3)CC2)n1', '15 to 50 nM');

Next molecule, Ki to be filled in.
Problem: // query Ki value for entry CCC(=O)N[C@H]1CC[C@H](CCN2CCN(c3nc(NC)nc(Cl)c3Cl)CC2)CC1
Result: 5 to 15 nM

* * *

molecular target: rat recombinant D3 receptors (Rattus norvegicus (Rat), UniProt P19020); experiment: D3 receptor binding; conditions: [3H]spiperone, rat recombinant D3 in Sf9 cells
Sequence (P19020 whole entry): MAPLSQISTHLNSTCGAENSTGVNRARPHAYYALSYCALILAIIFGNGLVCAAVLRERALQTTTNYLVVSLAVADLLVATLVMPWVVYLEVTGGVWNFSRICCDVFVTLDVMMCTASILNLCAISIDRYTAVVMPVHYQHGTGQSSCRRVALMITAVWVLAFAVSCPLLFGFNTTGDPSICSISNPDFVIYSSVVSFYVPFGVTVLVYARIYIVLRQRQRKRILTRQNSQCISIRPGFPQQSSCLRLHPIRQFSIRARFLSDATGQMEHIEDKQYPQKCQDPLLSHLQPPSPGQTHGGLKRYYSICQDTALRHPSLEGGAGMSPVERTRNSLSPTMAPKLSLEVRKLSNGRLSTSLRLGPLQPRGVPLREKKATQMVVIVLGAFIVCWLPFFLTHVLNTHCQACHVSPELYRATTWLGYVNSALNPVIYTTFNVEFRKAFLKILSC
measurement.label: Ki

The cases that follow already have their Ki on record.
INSERT INTO results (entry_smiles, result) VALUES
  ('CNc1nc(Cl)c(Cl)c(N2CCN(CC[C@H]3CC[C@H](NC(=O)N(C)C)CC3)CC2)n1', '1 to 3 nM'),
  ('CCC(=O)N[C@H]1CC[C@H](CCN2CCN(c3nc(NC)nc(Cl)c3Cl)CC2)CC1', '< 1 nM');

# context switch: different molecule, same Ki
Problem: Please look up its Ki: CNc1nc(Cl)c(Cl)c(N2CCN(CC[C@H]3CC[C@H](NC(C)=O)CC3)CC2)n1
Result: < 1 nM

* * *

biological target: rat recombinant D3 receptors (Rattus norvegicus (Rat)); assay: D3 receptor binding
# Sel. = D2/D3 selectivity, Ki for D2 receptor divided by Ki for D3 receptor annotations

Sample records with Sel. = D2/D3 selectivity, Ki for D2 receptor divided by Ki for D3 receptor:
INSERT INTO results (entry_smiles, subject_of_test, result) VALUES
  ('CNc1nc(Cl)c(Cl)c(N2CCN(CC[C@H]3CC[C@H](NC(=O)N(C)C)CC3)CC2)n1', 'rat recombinant D3 receptors (Rattus norvegicus (Rat))', 7),
  ('CCC(=O)N[C@H]1CC[C@H](CCN2CCN(c3nc(NC)nc(Cl)c3Cl)CC2)CC1', 'rat recombinant D3 receptors (Rattus norvegicus (Rat))', 43),
  ('CNc1nc(Cl)c(Cl)c(N2CCN(CC[C@H]3CC[C@H](NC(N)=O)CC3)CC2)n1', 'rat recombinant D3 receptors (Rattus norvegicus (Rat))', 27),
  ('CNc1nc(Cl)c(Cl)c(N2CCN(CC[C@H]3CC[C@H](NC(C)=O)CC3)CC2)n1', 'rat recombinant D3 receptors (Rattus norvegicus (Rat))', 22),
  ('CCNC(=O)N[C@H]1CC[C@H](CCN2CCN(c3nc(NC)nc(Cl)c3Cl)CC2)CC1', 'rat recombinant D3 receptors (Rattus norvegicus (Rat))', 17);

--- query ---
Problem: Quick check: Sel. = D2/D3 selectivity, Ki for D2 receptor divided by Ki for D3 receptor of CCNc1nc(Cl)c(Cl)c(N2CCN(CC[C@H]3CC[C@H](NC(C)=O)CC3)CC2)n1 ?
Result: 23
